This section presents binders with their documented ratio of KD at pH 5.8/pH7.4 values.
ASSAYED SYSTEM: T1, mouse latent myostatin (mouse, UniProt O08689 26-267; O08689 268-376)
T1 sequence 1: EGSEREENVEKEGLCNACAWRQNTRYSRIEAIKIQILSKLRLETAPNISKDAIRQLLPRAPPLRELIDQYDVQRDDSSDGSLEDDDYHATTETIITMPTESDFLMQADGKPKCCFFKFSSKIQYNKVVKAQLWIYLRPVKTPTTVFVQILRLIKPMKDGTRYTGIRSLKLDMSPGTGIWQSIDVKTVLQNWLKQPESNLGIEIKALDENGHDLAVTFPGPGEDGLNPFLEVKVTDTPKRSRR
T1 sequence 2: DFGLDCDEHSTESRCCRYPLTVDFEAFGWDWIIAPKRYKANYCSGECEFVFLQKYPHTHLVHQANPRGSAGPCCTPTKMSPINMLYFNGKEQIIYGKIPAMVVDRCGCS
ASSAY COMMENT: SPR 37C
Just the number, please, no unit attached.

Examples from the recorded data:
[[record]]
binder = "MS_M103245H795-SG1/M103202L1045-SK1 (antibody, human IgG1, kappa, V domains shown, also called MS1032LO21-SG1) VH: QVTLKESGPVLVKPTETLTLTCKVSGIDLSHDDISWVRQAPGKGLEWVSIISYAGSTYYASWAKGRLTISKDTSKNQVVLTMTNMDPVDTATYYCARGVPAYSHGGDLWGQGTLVTVSS VL: DIVMTQSPATLSLSPGERATLSCTTSQSVYHENWLSWFQQKPGQPPKLLIYWASTLAYGVPSRFSGSGSGTDFTLTISSLQPEDAATYYCAGGYGGGRYAFGQGTKVEIKR"
meas_value = 113

[[record]]
binder = "MS_M103205H795-SG1/M103202L1060-SK1 (antibody, human IgG1, kappa, V domains shown, also called MS1032LO24-SG1) VH: QVTLKESGPVLVKPTETLTLTCTVSGIDLSHDDISWVRQAPGKGLEWVGIISYAGSTYYASWAKGRLTISKDTSKNQVVLTMTNMDPVDTATYYCARGVPAYSHGGDLWGQGTLVTVSS VL: DIVMTQSPATLSLSPGERATLSCTSSQSVFHENWLSWFQQKPGQPPKLLIYWASTLAWGVPSRFSGSGSGTDFTLTISSLQPEDAATYYCAGGYGGGRYAFGQGTKVEIKR"
meas_value = 6

[[record]]
binder = "MS_M103205H1004-SG1/M103202L889-SK1 (antibody, human IgG1, kappa, V domains shown, also called MS1032LO07-SG1) VH: QVTLKESGPVLVKPTETLTLTCTVSGIDLSHDDISWVRQAPGKGLEWVGIISYAGSMYYASWAKGRLTISKDTSKNQVVLTMTNMDPVDTATYYCARGVPAYSHGGDKWGQGTLVTVSS VL: DIVMTQSPATLSLSPGERATLSCTSSQSVYHANWLSWFQQKPGQPPKLLIYWASTLAYGVPSRFSGSGSGTDFTLTISSLQPEDAATYYCAGGYGGGRYAFGQGTKVEIKR"
meas_value = 97


Provide measured ratio of KD at pH 5.8/pH7.4 value, entry: MS_M103205H1057-SG1/M103202L889-SK1 (antibody, human IgG1, kappa, V domains shown, also called MS1032LO12-SG1) VH: QVTLKESGPVLVKPTETLTLTCTVSGIDLSHTDISWVRQAPGKGLEWVGIISYAGSKYKASWAKGRLTISKDTSKNQVVLTMTNMDPVDTATYYCARGVPAYSHGGDLWGQGTLVTVSS VL: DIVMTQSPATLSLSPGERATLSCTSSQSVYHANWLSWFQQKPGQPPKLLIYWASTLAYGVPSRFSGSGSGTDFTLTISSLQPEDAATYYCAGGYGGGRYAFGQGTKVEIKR
60

Provide measured ratio of KD at pH 5.8/pH7.4 value, entry: MS_M103240H1246-SG1/M103202L1045-SK1 (antibody, human IgG1, kappa, V domains shown, also called MS1032LO25-SG1) VH: QVQLVESGGGLVQPGGSLRLSCAVSGIDLSHEDISWVRQAPGKGLEWVSIISYAGSKYYASWAKGRLTISKDTSKNQVVLTMTNMDPVDTATYYCARGVPAYSHGGDLWGQGTLVTVSS VL: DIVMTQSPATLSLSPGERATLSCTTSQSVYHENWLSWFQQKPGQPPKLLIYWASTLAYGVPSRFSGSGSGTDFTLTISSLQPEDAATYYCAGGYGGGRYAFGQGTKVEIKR
38
